Molecular target: JAK1 (Homo sapiens (Human), UniProt P23458)
Sequence (P23458 875-1153): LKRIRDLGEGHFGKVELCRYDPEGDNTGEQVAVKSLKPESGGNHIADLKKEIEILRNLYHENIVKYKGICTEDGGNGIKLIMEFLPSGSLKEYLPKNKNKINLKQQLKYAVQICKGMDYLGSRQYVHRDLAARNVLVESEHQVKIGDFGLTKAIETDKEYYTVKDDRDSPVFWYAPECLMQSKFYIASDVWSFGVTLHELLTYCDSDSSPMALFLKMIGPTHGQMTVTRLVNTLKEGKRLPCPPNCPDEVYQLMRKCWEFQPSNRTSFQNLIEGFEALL
Assay: Jak Biochemical HTRF Assay, JAK1
Conditions: HTRF biochemical assay, GST-tagged catalytic domain; top concentration tested […]; read-out: JAK1 IC50
result.type: IC50

compound: N#CCC1(n2cc(C(N)=O)c(Nc3ccccc3)n2)CN(CC(F)(F)F)C1
target.or.test.system: JAK1 (Homo sapiens (Human), UniProt P23458)
reported.measurement: 162 nM
--
compound: N#CCC1(n2cc(C(N)=O)c(Nc3ccccc3)n2)CN(C(=O)OC2CCOCC2)C1
target.or.test.system: JAK1 (Homo sapiens (Human), UniProt P23458)
reported.measurement: 11 nM
--
compound: CC(C)(C)OC(=O)N1CC[C@](CC#N)(n2cc(C(N)=O)c(Nc3ccc(F)cc3)n2)[C@@H](F)C1 (racemic) [Example 6-3]
target.or.test.system: JAK1 (Homo sapiens (Human), UniProt P23458)
reported.measurement: 1 nM
--
compound: N#CCC1(n2cc(C(N)=O)c(Nc3ccnc(F)c3)n2)CCN(C(=O)CC2CC2)CC1
target.or.test.system: JAK1 (Homo sapiens (Human), UniProt P23458)
reported.measurement: 1 nM
--
compound: CC(C)(C)OC(=O)N1CCC(CC#N)(n2cc(C(N)=O)c(Nc3ccc(F)cc3)n2)CC1
target.or.test.system: JAK1 (Homo sapiens (Human), UniProt P23458)
reported.measurement: 0.8 nM
--
compound: CC(C)OC(=O)c1ccc(Nc2nn(C3(CC#N)CCN(C(=O)OC(C)(C)C)CC3)cc2C(N)=O)cc1
target.or.test.system: JAK1 (Homo sapiens (Human), UniProt P23458)
reported.measurement: 2 nM
--
compound: COC(=O)N1CCC(CC#N)(n2cc(C(N)=O)c(Nc3ccccc3)n2)CC1
target.or.test.system: JAK1 (Homo sapiens (Human), UniProt P23458)
reported.measurement: 50 nM
--
compound: N#CCC1(n2cc(C(N)=O)c(Nc3ccc(OC4CCC4)nc3)n2)CCN(C(=O)OCC(F)F)CC1
target.or.test.system: JAK1 (Homo sapiens (Human), UniProt P23458)
reported.measurement: 0.2 nM
--
compound: CC(C)(C)OC(=O)N1CCC(CC#N)(n2cc(C(N)=O)c(Nc3ccc(F)cn3)n2)CC1
target.or.test.system: JAK1 (Homo sapiens (Human), UniProt P23458)
reported.measurement: 4 nM
--
compound: CS(=O)(=O)c1ccc(Nc2nn(C3(CC#N)CCOCC3)cc2C(N)=O)cc1
target.or.test.system: JAK1 (Homo sapiens (Human), UniProt P23458)
reported.measurement: 22 nM
--
compound: CN(C)c1ccc(C(=O)N2CCC(CC#N)(n3cc(C(N)=O)c(Nc4ccccc4)n3)CC2)cc1
target.or.test.system: JAK1 (Homo sapiens (Human), UniProt P23458)
reported.measurement: 14 nM
--
compound: N#CCC1(n2cc(C(N)=O)c(Nc3ccc(F)cc3)n2)CCC(N2CCc3ccccc32)CC1 (stereo not drawn) [Example 40-49]
target.or.test.system: JAK1 (Homo sapiens (Human), UniProt P23458)
reported.measurement: 5 nM
--
compound: CC(F)(F)C(=O)N1CC[C@@](CC#N)(n2cc(C(N)=O)c(Nc3ccc(F)nc3)n2)[C@@H](F)C1 (single isomer, unassigned)
target.or.test.system: JAK1 (Homo sapiens (Human), UniProt P23458)
reported.measurement: 0.05 nM
--
compound: N#CCC1(n2cc(C(N)=O)c(Nc3ccnc(F)c3)n2)CCC(Nc2cccc(Cl)c2)CC1 (stereo not drawn) [Example 40-29]
target.or.test.system: JAK1 (Homo sapiens (Human), UniProt P23458)
reported.measurement: 0.07 nM
--
compound: N#CCC1(n2cc(C(N)=O)c(Nc3ccccc3)n2)CCN(S(=O)(=O)c2cccc(Cl)c2)CC1
target.or.test.system: JAK1 (Homo sapiens (Human), UniProt P23458)
reported.measurement: 0.6 nM
--
compound: CC(C)(C)CC(=O)N1CCC(CC#N)(n2cc(C(N)=O)c(Nc3ccnc(F)c3)n2)CC1
target.or.test.system: JAK1 (Homo sapiens (Human), UniProt P23458)
reported.measurement: 0.6 nM
--
compound: CC(OC(=O)N1CCC(CC#N)(n2cc(C(N)=O)c(Nc3ccc(F)cc3)n2)CC1)C(F)(F)F (stereo not drawn)
target.or.test.system: JAK1 (Homo sapiens (Human), UniProt P23458)
reported.measurement: 0.8 nM
--
compound: CCOC(=O)COC(=O)N1CC(CC#N)(n2cc(C(N)=O)c(Nc3ccccc3)n2)C1
target.or.test.system: JAK1 (Homo sapiens (Human), UniProt P23458)
reported.measurement: 39 nM
--
compound: N#CCC1(n2cc(C(N)=O)c(Nc3ccc(F)cc3)n2)CCN(C(=O)OC2CCCOC2)CC1 (stereo not drawn)
target.or.test.system: JAK1 (Homo sapiens (Human), UniProt P23458)
reported.measurement: 4 nM
--
compound: CC(C)(O)c1ccc(Nc2nn(C3(CC#N)CCN(C(=O)OCC(F)(F)F)CC3)cc2C(N)=O)cn1
target.or.test.system: JAK1 (Homo sapiens (Human), UniProt P23458)
reported.measurement: 0.1 nM
--
compound: N#CCC1(n2cc(C(N)=O)c(Nc3ccc(F)cc3)n2)CCN(c2cccc(F)c2)CC1
target.or.test.system: JAK1 (Homo sapiens (Human), UniProt P23458)
reported.measurement: 1 nM
--
compound: N#CCC1(n2cc(C(N)=O)c(Nc3ccnc(F)c3)n2)CCN(C(=O)OCC(F)F)CC1
target.or.test.system: JAK1 (Homo sapiens (Human), UniProt P23458)
reported.measurement: 0.07 nM
--
compound: COc1cccc(COC(=O)N2CC(CC#N)(n3cc(C(N)=O)c(Nc4ccccc4)n3)C2)c1
target.or.test.system: JAK1 (Homo sapiens (Human), UniProt P23458)
reported.measurement: 21 nM
--
compound: N#CCC1(n2cc(C(N)=O)c(Nc3ccccc3)n2)CN(C(=O)c2ccccn2)C1
target.or.test.system: JAK1 (Homo sapiens (Human), UniProt P23458)
reported.measurement: 59 nM
--
compound: CC(C)(C)OC(=O)N1CCC(CC#N)(n2cc(C(N)=O)c(Nc3ccc(C(=O)N4CCOCC4)cc3)n2)CC1
target.or.test.system: JAK1 (Homo sapiens (Human), UniProt P23458)
reported.measurement: 0.3 nM
--
compound: N#CCC1(n2cc(C(N)=O)c(Nc3ccnc(F)c3)n2)CCC(Nc2cc(F)ccc2F)CC1 (stereo not drawn) [Example 40-10]
target.or.test.system: JAK1 (Homo sapiens (Human), UniProt P23458)
reported.measurement: 14 nM
--
compound: CCCc1ccc(CN2CCC(CC#N)(n3cc(C(N)=O)c(Nc4ccccc4)n3)CC2)cc1
target.or.test.system: JAK1 (Homo sapiens (Human), UniProt P23458)
reported.measurement: 72 nM
--
compound: N#CCC1(n2cc(C(N)=O)c(Nc3ccc(F)cc3)n2)CCC(NCC(F)(F)F)CC1 (stereo not drawn) [Example 40-101]
target.or.test.system: JAK1 (Homo sapiens (Human), UniProt P23458)
reported.measurement: 18 nM
--
compound: N#CCC1(n2cc(C(N)=O)c(Nc3ccnc(F)c3)n2)CCN(Cc2cccc(F)n2)CC1
target.or.test.system: JAK1 (Homo sapiens (Human), UniProt P23458)
reported.measurement: 2 nM
--
compound: CC(C)(C)OC(=O)N1CCC(CC#N)(n2cc(C(N)=O)c(Nc3ccc(CC(=O)O)cc3)n2)CC1
target.or.test.system: JAK1 (Homo sapiens (Human), UniProt P23458)
reported.measurement: 0.1 nM
